# Assay overview: Human HepG2 cell viability assay in 384 well format
# Assay type: toxicity, cell-based
# Set-up: dose 125 nL, time 70.5 hour; concentration not given beside the values
# Condition set: HepG2 cells, read-out: Inhibition
Assay readout: cytotoxicity at 70.5 h (%)
# value in %; strip the unit string

Exam item: Please give measured cytotoxicity at 70.5 h of the following entry: O=C(c1ccc2ccccc2c1)C1CCCN(C(=O)Cn2cnnn2)C1 (stereo not given)
Marked response: -3.65

Exam item: Assign cytotoxicity at 70.5 h to the following record: O=C(N1CCCC1)N1C[C@H]2CC[C@@H]1CN(Cc1ccncc1)C2
Marked response: 17.1

Exam item: Supply reported cytotoxicity at 70.5 h belonging to this molecule: Cc1ccc2[nH]c(-c3cn(C4CCNCC4)nn3)nc2c1C
Marked response: -3.44

Exam item: Determine its reported cytotoxicity at 70.5 h: O=C1CC2(CCN(C(=O)c3ccncc3)CC2)Oc2c(Cl)cc(Cl)cc21
Marked response: -5.1

Exam item: Tell us which cytotoxicity at 70.5 h value is on record for CS(=O)(=O)c1ncc(CN2CCN3CCCC3C2)n1CC1CCCCC1 (stereo not given)
Marked response: -6.4

---

# Assay overview: Human HepG2 cell viability assay in 384 well format
# Type: toxicity, cell-based
# Design: dose 125 nL, time 70.5 hour; concentration not given beside the values
# Condition set: HepG2 cells, read-out: Inhibition
What cytotoxicity at 70.5 h was measured for each of the following?
Output spec: scalar in %, unitless text.

Exam item: Input Cn1nc(COCC2CC2)c2c1CN(CC1CC1)CC2 , output reported cytotoxicity at 70.5 h.
Marked response: -0.347

Exam item: // fetch cytotoxicity at 70.5 h given entry NC(=O)Cn1ccnc1C1CCCN(CCSc2ccccc2)C1 (stereo not drawn)
Marked response: -12.6

Exam item: Provide cytotoxicity at 70.5 h value for the following molecule: CCN1Cc2nccn2CC(COCc2csc(C)n2)C1 (stereo not drawn)
Marked response: -3.32

---

# Assay overview: Human HepG2 cell viability assay in 384 well format
# Type: toxicity, cell-based
# Parameters: dose 125 nL, time 70.5 hour; concentration not given beside the values
# Condition set: HepG2 cells, read-out: Inhibition
Assay readout: cytotoxicity at 70.5 h (%)
Lab book: enter the figure in %, no units written.

Exam item: Output cytotoxicity at 70.5 h of CCN(CC)c1ccc(C(=O)N2CCCC2Cn2cc(C)cn2)cn1 (stereo unspecified)
Marked response: -5.59

Exam item: Please supply the value of reported cytotoxicity at 70.5 h for the item COc1ccccc1C1CNCCN1C(=O)c1ccc(F)cc1 (stereo unspecified)
Marked response: 0.353

Exam item: Fill in reported cytotoxicity at 70.5 h for this entry: CNc1cc(C2CN(C(=O)c3cscn3)CCO2)nc(C)n1 (stereo unspecified)
Marked response: 26

Exam item: Find the measured cytotoxicity at 70.5 h of COc1c(C(=O)N2CCC(COCc3ccccc3)C2)c(C)nn1C (stereo unspecified) and report it.
Marked response: -0.0423

Exam item: Item Cc1ncc2c(n1)CN(C(C(N)=O)c1ccccc1)CC2 (stereo unspecified) : provide cytotoxicity at 70.5 h
Marked response: -7.87

Exam item: Give cytotoxicity at 70.5 h for CCN(CCO)C(=O)C1CCC(=O)N(Cc2cccc(OC)c2)C1 (stereo unspecified)
Marked response: -13.2

Exam item: Kindly indicate its recorded cytotoxicity at 70.5 h. Item: COc1cccc(CN2CCC3(CCN(C(=O)[C@H]4CCCO4)CC3)C2)c1
Marked response: -4.99

Exam item: Provide only the value of recorded cytotoxicity at 70.5 h for Cc1cc(C(=O)NCc2ccnc(OCC(F)(F)F)c2)no1
Marked response: -9.23

Exam item: Answer with the recorded cytotoxicity at 70.5 h of CC(C)(C)CC(=O)NS(=O)(=O)c1ccc(C#N)cc1C(F)(F)F only.
Marked response: 13.5

Exam item: Give me measured cytotoxicity at 70.5 h, please, for this compound: CC1CCCCN1S(=O)(=O)NCc1cccnc1OC1CCCC1 (stereo unspecified)
Marked response: -2.43

Exam item: Provide measured cytotoxicity at 70.5 h value, entry: Cc1cccc(-c2nccnc2C2CCN(C)CC2)c1C
Marked response: 0.0925

Exam item: State its cytotoxicity at 70.5 h: CC(C)=CCN1C(=O)[C@H]2CC[C@@H]1CN(c1ncccc1F)C2
Marked response: -22.9

Exam item: Indicate the recorded cytotoxicity at 70.5 h value for this compound: CN1CCC(NC(=O)Cc2csc(C(C)(C)C)n2)CC1
Marked response: -10.5

Exam item: Give a short answer stating reported cytotoxicity at 70.5 h for CC(Oc1ccc2c(c1)OCO2)C(=O)N1CCC(c2ncc[nH]2)CC1 (stereo unspecified) .
Marked response: -8.64

Exam item: Consider the compound Cc1nc(C2CCCN(C(=O)c3sc(C)nc3C)C2)no1 (stereo unspecified) and give its recorded cytotoxicity at 70.5 h.
Marked response: 37.2

Exam item: Provide cytotoxicity at 70.5 h value for the following compound: Cc1nnc(NCC(c2ccco2)N2CCCC2)c(C#N)c1C (stereo unspecified)
Marked response: 3.51
